Target or test system: Influenza A virus M2 proton channel (A/TW/4845/1999 H1N1)
Experiment: M2 proton channel binding, NMR based, influenza A virus H1N1 strain (AID 1549)
Protocol conditions: NMR binding screen, M2 protein
Calls of active or inactive are those of the source. No rule for the calls is given here.
Assay metric: Kd

{"columns": ["Molecule", "Value observed"],
 "data": [
  ["CCCNC(=O)c1cnc2n(c1=O)CCS2", "> 4 mM (inactive)"],
  ["CC(C)(C)C(=O)Nc1ncc(C(F)(F)F)cc1Cl", "> 4 mM (inactive)"],
  ["CC(=O)NC1(NC(C)=O)CCN(C)CC1", "> 4 mM (inactive)"],
  ["O=S1(=O)CCC(NC(=S)Nc2ccc(O)cc2)C1 (centres undefined)", "> 4 mM (inactive)"],
  ["CC(=O)Nc1ccc(S(=O)(=O)N(C)C)cc1", "> 4 mM (inactive)"],
  ["O=C(NCc1cccc(Cl)c1)c1cnccn1", "> 4 mM (inactive)"],
  ["CNC(=S)Nc1ccc(OC)cc1C", "> 4 mM (inactive)"],
  ["Nc1c(N2CCCC2)cnn(-c2ccccc2)c1=O", "> 4 mM (inactive)"],
  ["O=C(O)CNC(=O)c1ccccc1", "> 4 mM (inactive)"],
  ["Cc1cc(=O)n2ccc(CN3CCOCC3)c(O)c2n1", "> 4 mM (inactive)"],
  ["Nc1[nH]c(=S)[nH]c(=O)c1-c1ccccc1", "> 4 mM (inactive)"],
  ["Cc1cc(C)n(CCC(=O)O)n1", "> 4 mM (inactive)"],
  ["NC(c1ccccc1)c1ccccn1 (centres undefined)", "> 4 mM (inactive)"],
  ["CC(=O)c1sc(NC(=O)C=C(C)C)nc1C", "> 4 mM (inactive)"],
  ["COc1ccc(C2(CN)CCOCC2)cc1OC", "> 4 mM (inactive)"],
  ["CC(=O)N/N=C(\\C)c1cccc(N)c1", "> 4 mM (inactive)"],
  ["Cn1ncc(CO)c1-c1ccccc1", "> 4 mM (inactive)"],
  ["Cc1nnc2ccc(N3CCCC3)nn12", "> 4 mM (inactive)"],
  ["Nc1c(/C=C2\\C=Nc3ccccc32)c(=O)nc2scnn12", "> 4 mM (inactive)"],
  ["O=C(CS(=O)(=O)c1ccccc1)N1CCCCCC1", "> 4 mM (inactive)"],
  ["Cc1ccc(S(C)(=O)=O)s1", "> 4 mM (inactive)"],
  ["NC(=O)CCn1ncc2ccccc21", "> 4 mM (inactive)"],
  ["NCc1cn2ccccc2n1", "> 4 mM (inactive)"],
  ["CC(C)C(C)/C=C/C(C)C1CCC2C3=CC=C4CC(O)CCC4(C)C3CCC21C (centres undefined)", "> 4 mM (inactive)"],
  ["COC(=O)c1cc2ccccc2cn1", "> 4 mM (inactive)"],
  ["Cc1ccc(/C=N/NC(N)=O)o1", "> 4 mM (inactive)"],
  ["COc1ccc2c(c1)OC/C(=C/c1ccc(OC)c(OC)c1)C2=O", "> 4 mM (inactive)"],
  ["C[N+](C)(C)CC(O)CC(=O)O (centres undefined)", "> 4 mM (inactive)"],
  ["O=C(O)c1cc(=O)[nH]c2ccccc12", "> 4 mM (inactive)"]
]}

###

Target or test system: Influenza A virus M2 proton channel (A/TW/4845/1999 H1N1)
Experiment: M2 proton channel binding, NMR based, influenza A virus H1N1 strain (AID 1549)
Protocol conditions: NMR binding screen, M2 protein
Calls of active or inactive are those of the source. How the calls were made is not given here.
Assay metric: Kd

{"columns": ["Compound", "Assay metric", "Value observed"],
 "data": [
  ["CSc1ccc(C(=S)N2CCN(C)CC2)cc1", "Kd", "> 4 mM (inactive)"],
  ["CCCCCCCCCCCCCCCCCCOCC(O)CO (centres undefined)", "Kd", "> 4 mM (inactive)"],
  ["Cc1csc(NC(=O)c2ccoc2C)n1", "Kd", "> 4 mM (inactive)"],
  ["COc1cc(OC)c(-c2c(OC)cc(OC)cc2OC)c(OC)c1", "Kd", "> 4 mM (inactive)"],
  ["COc1cc2[nH]c(=S)n(C)c(=O)c2cc1OC", "Kd", "> 4 mM (inactive)"],
  ["CC(=O)Nc1sc(C)c(C)c1C(N)=O", "Kd", "> 4 mM (inactive)"],
  ["CC(=O)Oc1ccc(N2C(=O)C3C4C=CC(O4)C3C2=O)cc1 (centres undefined)", "Kd", "> 4 mM (inactive)"],
  ["O=c1[nH]oc2ccccc12", "Kd", "> 4 mM (inactive)"],
  ["O=C(Nc1nnc(-c2ccccc2Cl)o1)c1ccco1", "Kd", "> 4 mM (inactive)"],
  ["COc1ccc2nc(NC(=O)c3cnccn3)sc2c1", "Kd", "> 4 mM (inactive)"],
  ["COc1c(O)cc2c(-c3ccccc3)cc(=O)oc2c1OC", "Kd", "> 4 mM (inactive)"],
  ["CSc1nnc(CN2CCSCC2)n1C", "Kd", "> 4 mM (inactive)"],
  ["C=CCc1ccc(OC(=O)c2ccccc2)c(OC)c1", "Kd", "> 4 mM (inactive)"],
  ["CNC(=O)C(=O)Nc1ccc(F)cc1", "Kd", "> 4 mM (inactive)"]
]}
